Values were extracted from the supplement of paper PMC7023306.

- assay.explanation: TIMS collision cross section in N2 (TIMS CCS N2); higher = larger gas-phase ion size
- conditions: ion species: [M-H]-; drift gas: N2 (99.4% N2, 0.6% O2); calibration: Stow et al. 2017 values for Agilent ESI-L Low Concentration Tune Mix; ionization: negative ESI
measured.parameter: TIMS collision cross section in N2 (Å²)

COc1ccc(-c2oc3cc(O)cc(O)c3c(=O)c2O)cc1 [Kaempferide]
167.04
Oc1cc(O)c2c(c1)OC(c1ccc(O)c(O)c1)C(O)C2 (single isomer, unassigned; (+)) [(+)-Catechin]
157.43
COc1c(O)cc2oc(-c3ccc(O)cc3)cc(=O)c2c1O
165.52
CC1(C)CC[C@]2(C(=O)O)CC[C@]3(C)C(=CC[C@@H]4[C@@]5(C)CC[C@H](O)[C@@](C)(CO)[C@@H]5CC[C@]43C)[C@@H]2C1
222.47
C[C@@H]1O[C@@H](O[C@H]2[C@H](Oc3cc(O)c4c(=O)cc(-c5ccc(O)cc5)oc4c3)O[C@H](CO)[C@@H](O)[C@@H]2O)[C@H](O)[C@H](O)[C@H]1O
225.59
O=c1c(-c2ccc(O)c(O)c2)coc2cc(O)ccc12 [7,3',4'-TRIHYDROXYISOFLAVONE]
162.61
C[C@H]1[C@H](C)CC[C@]2(C(=O)O)CC[C@]3(C)C(=CC[C@@H]4[C@@]5(C)C[C@@H](O)[C@H](O)[C@@](C)(CO)[C@@H]5[C@H](O)C[C@]43C)[C@H]12
223.91

###

- assay.explanation: TIMS collision cross section in N2 (TIMS CCS N2); higher = larger gas-phase ion size
- conditions: ion species: [M-H]-; drift gas: N2 (99.4% N2, 0.6% O2); calibration: Stow et al. 2017 values for Agilent ESI-L Low Concentration Tune Mix; ionization: negative ESI
Listed compounds paired with reported TIMS collision cross section in N2
measured.parameter: TIMS collision cross section in N2 (Å²)

COc1ccc(-c2cc3ccc(O)cc3oc2=O)cc1 [7-hydroxy 3(4- methoxyphenyl) coumarin]
162.79
COc1ccc(C=CC(=O)c2ccccc2O)cc1 [2'-Hydroxy-4-methoxychalcone]
164.38
O=c1c(O)c(-c2ccc(O)c(O)c2)oc2cc(O)ccc12
162.38
COc1cc2oc(-c3ccc(O)cc3)cc(=O)c2c(O)c1O
166.28
O=c1cc(-c2ccccc2O)oc2ccccc12 [2'-Hydroxyflavone]
149.95
O=c1c(O)c(-c2cccc(O)c2O)oc2ccc(O)cc12 [3,6,2',3'-Tetrahydroxyflavone]
161.7
CCCCCCCCO[C@@H]1O[C@H](CO)[C@@H](O)[C@H](O)[C@H]1O [n-Octyl-beta-D-glucopyranoside]
181.3
COc1cc2oc(-c3ccc(O)cc3O)c(CC=C(C)C)c(=O)c2c(O)c1/C=C/C(C)C
218.58
COc1cc(/C=C/C(=O)O)cc(O)c1O [5-Hydroxyferulic acid]
141.26
O=C1CC(c2ccccc2)Oc2ccc(O)cc21 (configuration not stated) [6-Hydroxyflavanone]
156.92
COc1ccc(-c2cc(=O)c3c(O)c(OC)c(O)c(OC)c3o2)cc1OC
190.48
COc1ccc2c(c1)OC(c1ccccc1)CC2=O (configuration not stated)
163.71
C[C@H]1[C@H](C)CC[C@]2(C(=O)O)CC[C@]3(C)C(=CC[C@@H]4[C@@]5(C)C[C@@H](O)[C@H](O)C(C)(C)[C@@H]5CC[C@]43C)[C@H]12
220.34
O=c1oc2cc(O)ccc2c2oc3cc(O)ccc3c12
155.75
O=c1c(O[C@@H]2O[C@H](CO)[C@@H](O)[C@H](O)[C@H]2O)c(-c2ccc(O)cc2)oc2cc(O)cc(O)c12 [kaempferol-3-O-glucoside]
200.44
COc1ccc(-c2cc(=O)c3c(O)c(OC)c(O)cc3o2)cc1OC
185.44
COc1ccc(C2CC(=O)c3c(O)cccc3O2)cc1OC (configuration not stated) [5-Hydroxy-3',4'-dimethoxyflavanone]
174.21

###

- assay.explanation: TIMS collision cross section in N2 (TIMS CCS N2); higher = larger gas-phase ion size
- conditions: ion species: [M-H]-; drift gas: N2 (99.4% N2, 0.6% O2); calibration: Stow et al. 2017 values for Agilent ESI-L Low Concentration Tune Mix; ionization: negative ESI
Criterion: TIMS collision cross section in N2 meeting or surpassing 200 Å². Met: true. Not met: false.

COc1ccc(O)c2c1C(=O)CC(c1ccccc1)O2 (stereo not given) [8-Hydroxy-5-methoxyflavanone]
false
C[C@@H]1O[C@@H](OC[C@H]2O[C@@H](Oc3cc(O)c4c(=O)cc(-c5ccc(O)cc5)oc4c3)[C@H](O)[C@@H](O)[C@@H]2O)[C@H](O)[C@H](O)[C@H]1O
true
COc1cc(OC)c2c(c1)OC(c1ccc(O)cc1)CC2=O (stereo not given) [5,7-DIMETHOXY-4'-HYDROXYFLAVANONE]
false
CC1(C)CC[C@]2(C)CC[C@]3(C)C(=CC[C@@H]4[C@@]5(C)CC[C@@H](O)[C@](C)(C(=O)O)[C@@H]5CC[C@]43C)[C@@H]2C1
true
CC(C)=CCc1c(O)cc(O)c(C(=O)/C=C/c2ccc(O)cc2)c1O
false
O=c1cc(-c2cccc(O)c2)oc2ccccc12 [3'-Hydroxyflavone]
false
COc1cc(C=CC(=O)O)cc(OC)c1O
false
COc1ccc([C@@H]2CC(=O)c3c(O)cc(O[C@@H]4O[C@H](CO)[C@@H](O)[C@H](O)[C@H]4O)cc3O2)cc1
true
COc1cc(O)c2c(c1)O[C@H](c1ccc(O)cc1)CC2=O
false
CC(C)=CCc1c(O)c(CC=C(C)C)c2c(c1O)C(=O)C[C@@H](c1ccc(O)cc1)O2
true
O=C1c2c(O)cc(O)cc2O[C@H](c2ccc(O)cc2)[C@H]1O [Dihydrokaempferol]
false
O=C(/C=C/c1ccc(O)cc1)OC[C@H]1O[C@@H](Oc2c(-c3ccc(O)cc3)oc3cc(O)cc(O)c3c2=O)[C@H](O)[C@@H](O)[C@@H]1O [Tiliroside]
true
Oc1cc(O)c2c(c1)O[C@@H](c1ccc(O)c(O)c1)[C@H](O)C2
false
CC(C)=CCC(=O)C1(O)C(O)=C(C(=O)CC(C)C)C(=O)C1CC=C(C)C (stereo not given)
false

###

- assay.explanation: TIMS collision cross section in N2 (TIMS CCS N2); higher = larger gas-phase ion size
- conditions: ion species: [M-H]-; drift gas: N2 (99.4% N2, 0.6% O2); calibration: Stow et al. 2017 values for Agilent ESI-L Low Concentration Tune Mix; ionization: negative ESI
Criterion: TIMS collision cross section in N2 meeting or surpassing 200 Å². Met: yes. Not met: no.

CCCCCCCCCCCCCCCCCC(=O)O
no
COc1ccc(-c2cc3ccc(O)cc3oc2=O)cc1OC [3(3',4'-Dimethoxyphenyl)-7-hydroxycoumarin]
no
COc1ccc(-c2coc3cc(O)cc(O)c3c2=O)cc1 [Biochanin A (5,7-Dihydroxy-4'-methoxyisoflavone)]
no
O=C(N[C@@H](CSCc1ccccc1)C(=O)O)OCc1ccccc1
yes
O=c1cc(-c2cc(O)c(O)c(O)c2)oc2cc(O)ccc12 [7,3',4',5'-Tetrahydroxyflavone]
no

###

- assay.explanation: TIMS collision cross section in N2 (TIMS CCS N2); higher = larger gas-phase ion size
- conditions: ion species: [M-H+HCO2H]-; drift gas: N2 (99.4% N2, 0.6% O2); calibration: Stow et al. 2017 values for Agilent ESI-L Low Concentration Tune Mix; ionization: negative ESI
measured.parameter: TIMS collision cross section in N2 (Å²)

CC1(C)C[C@H]2C3=CC[C@@H]4[C@@]5(C)CC[C@H](O)[C@](C)(CO)[C@@H]5CC[C@@]4(C)[C@]3(C)CC[C@@]2(C)[C@H](O)[C@@H]1O
224.66
O=c1c(-c2ccc(O)cc2)coc2cc(O[C@@H]3O[C@H](CO)[C@@H](O)[C@H](O)[C@H]3O)cc(O)c12
220.37
CC1(C)CC[C@]2(C(=O)O)CC[C@]3(C)C(=CC[C@@H]4[C@@]5(C)CC[C@H](O[C@@H]6OC[C@H](O)[C@H](O)[C@H]6O[C@@H]6O[C@H](CO)[C@@H](O)[C@H](O)[C@H]6O)[C@@](C)(CO)[C@@H]5CC[C@]43C)[C@@H]2C1 [Cauloside C]
289.87

###

- assay.explanation: TIMS collision cross section in N2 (TIMS CCS N2); higher = larger gas-phase ion size
- conditions: ion species: [M-H]-; drift gas: N2 (99.4% N2, 0.6% O2); calibration: Stow et al. 2017 values for Agilent ESI-L Low Concentration Tune Mix; ionization: negative ESI
Criterion: TIMS collision cross section in N2 meeting or surpassing 200 Å². Met: T. Not met: F.

O=c1c(-c2ccc(O)cc2)coc2cc(O)c(O)cc12 [6,7,4'-Trihydroxyisoflavone]
F
O=c1cc(-c2ccc(O)cc2)oc2cc(O[C@@H]3O[C@H](CO)[C@@H](O)[C@H](O)[C@H]3O[C@@H]3OC[C@](O)(CO)[C@H]3O)cc(O)c12
T
C[C@@H]1O[C@@H](O[C@H]2[C@H](Oc3cc(O)c4c(c3)O[C@H](c3ccc(O)c(O)c3)CC4=O)O[C@H](CO)[C@@H](O)[C@@H]2O)[C@H](O)[C@H](O)[C@H]1O [eriodictyol-7-neohesperidoside]
T
COc1cc(-c2cc(=O)c3c(O)c(OC)c(O)c(OC)c3o2)cc(O)c1OC
F
COc1ccccc1-c1cc(=O)c2c(O)cc(O)cc2o1 [5,7-Dihydroxy-2'-methoxyflavone]
F
O=c1c(O)c(-c2ccc(O)cc2)oc2cc(OC3OC(CO)C(O)C(O)C3O)cc(O)c12 (configuration not stated) [kaempferol-7-O-glucoside]
T
O=c1c(O)c(-c2ccccc2)oc2ccccc12 [3-Hydroxyflavone]
F
